Where do these numbers come from? They come from patent US20240400689A1.

Entries and their FACS MFI values follow.
Target: T1, human CD276 protein (human, UniProt Q5ZPR3 29-534)
T1 construct: whole, on cells; for SKOV3 and the other cancer lines the protein is the cells' own; also called B7-H3; B7H3
T1 sequence (looked up): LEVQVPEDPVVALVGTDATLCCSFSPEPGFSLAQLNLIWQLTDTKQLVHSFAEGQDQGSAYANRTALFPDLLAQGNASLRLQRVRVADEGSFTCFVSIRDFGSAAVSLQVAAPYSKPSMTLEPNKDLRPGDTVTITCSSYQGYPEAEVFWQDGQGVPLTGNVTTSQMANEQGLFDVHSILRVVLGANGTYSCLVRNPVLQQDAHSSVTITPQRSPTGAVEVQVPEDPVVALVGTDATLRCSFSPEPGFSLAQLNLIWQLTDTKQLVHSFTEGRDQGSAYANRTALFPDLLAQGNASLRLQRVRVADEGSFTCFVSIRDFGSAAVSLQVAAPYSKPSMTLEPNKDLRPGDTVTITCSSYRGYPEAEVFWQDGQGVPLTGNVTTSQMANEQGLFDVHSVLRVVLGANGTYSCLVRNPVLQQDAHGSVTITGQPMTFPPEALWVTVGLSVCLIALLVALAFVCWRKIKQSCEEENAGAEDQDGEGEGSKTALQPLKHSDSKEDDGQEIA
Test: FACS on CHO-S-hCD276 cells
Please state the value as a number alone, without comment.

INSERT INTO results (binder, experimental_value) VALUES
  ('3-F2-E7-F9 (antibody, V domains shown, mouse monoclonal antibody (hybridoma)) VH: QVQLQQSGPELVRPGVSVKISCKGSGYTFTDYTMHWVKESHAKSLEWIGVISTYYGNTNYNQKFKGKATLTVDKSSSTAYMELAGLTSEDSAIYYCARASYGSGYGPYYWYFDVWGAGTTVTVSS VL: DIQMTQSPASLFASVGETVTITCRASEKIYSYLAWYFQKQGKSPQFLVYNANALAEGVPSRFSGSGSGTQFSLKINSLQPEDFGTYYCQHHYGTPVTFGAGSKLELK', 52300),
  ('26-D2-D6-B12 (antibody, V domains shown, mouse monoclonal antibody (hybridoma)) VH: QIQLVQSGPELKKPGETVKISCKASGYIFRNYGMNWVKQAPGKGLKWMGWINSYTGKPTYVDDFKGRFAFSLETSASTAYLQINNLKNEDMATYFCARDDGYWYTMDYWGQGTSVTVSS VL: DVVMTQTPLSLPVSLGDQASISCRSSQSLVHSNGHTYLHWYLQKPGQSPKLLIYKVSNRFSGVPDRFSGSGSGTDFTLKISRVEAEDLGVYFCSQSTHVPWTFGGGTKLEIK', 47500);

# ---- query binder ----
Query: FACS MFI lookup needed for 13-A8-C4-G1 (antibody, V domains shown, mouse monoclonal antibody (hybridoma)) VH: QVQLQQPGAELVKPGASMKLSCKASGYIFTSNWMHWVKQRPGQGLEWIGMIHPNSGTTSYNEKFKNKAKLTVDKSSSTAYVQLSSLTSEDSAVYYCAGPTTTRRFYPMDYWGQGTSVTVSS VL: QAVVTQESALTTSPGETVTLTCRSSTGAVTTSNYANWVQEKPDHLFTGLIGGTNNRAPGVPARFSGSLIGDKAALTITGAQTEDEAIYFCALWYSNHFIFGSGTKVTVL , thanks.
Response: 54100
